Provide the recorded IC50 for the entries that follow.
- Test system: Ba/F3 LMNA-NTRK1-G595R
- Method: Ba/F3 cell viability (anti-proliferative activity)
- Type: cell-based, mouse
- Measurement parameters: Mus musculus, BaF3
One number for each entry, in nM.

| Structure string | Unit abbrev | Endpoint value |
| --- | --- | --- |
| C[C@@H]1CCc2ncc(F)cc2[C@H]2CCCN2c2ccn3ncc(c3n2)C(=O)N1 | nM | 18.1 |

Then there is this compound:
Value lookup for IC50; key = O=C(Nc1cnn2ccc(N3CCC[C@@H]3c3cc(F)ccc3F)nc12)N1CC[C@H](O)C1
3200

###

For each record, write down the corresponding concentration at 0.5 h.
- Method: Brain distribution in rats (plasma, brain, CSF by LC-MS/MS)
- Type: in vivo, Male Sprague Dawley (SD) rats
- Measurement parameters: male, Sprague-Dawley, rat, in vivo, po, 10 mg/kg, Plasma concentration (ng/mL ± SD)
Give bare numbers, in ng/mL.

| Structure string | concentration at 0.5 h (ng/mL) |
| --- | --- |
| C[C@@H]1CCc2ncc(F)cc2[C@H]2CCCN2c2ccn3ncc(c3n2)C(=O)N1 | 2320 |

Now for a further compound.
What does the record list as concentration at 0.5 h for C[C@H]1CNC(=O)c2cnn3ccc(nc23)N[C@H](C)c2cc(F)ccc2O1 ?
769

###

- Method: Brain distribution in rats (plasma, brain, CSF by LC-MS/MS)
- Assay type: in vivo, Male Sprague Dawley (SD) rats
- Measurement parameters: male, Sprague-Dawley, rat, in vivo, po, 10 mg/kg, Brain concentration (ng/g ± SD)
Provide the reported concentration at 2 h of each item.
Give bare numbers, in ng/g.

| Structure string | Experimental readout | Endpoint value |
| --- | --- | --- |
| C[C@H]1CNC(=O)c2cnn3ccc(nc23)N[C@H](C)c2cc(F)ccc2O1 | concentration at 2 h | 117 |

Here is another compound to look at.
Which measured concentration at 2 h value corresponds to C[C@@H]1CCc2ncc(F)cc2[C@H]2CCCN2c2ccn3ncc(c3n2)C(=O)N1 ?
85.4

###

- Method: Brain distribution in rats (plasma, brain, CSF by LC-MS/MS)
- Type: in vivo, Male Sprague Dawley (SD) rats
- Measurement parameters: male, Sprague-Dawley, rat, in vivo, po, 10 mg/kg, CSF/plasma ratio (%)
Experimental readout: Kp at 2 h

| Structure string | Kp at 2 h |
| --- | --- |
| C[C@@H]1CCc2ncc(F)cc2[C@H]2CCCN2c2ccn3ncc(c3n2)C(=O)N1 | 0.00648 |

Okay, next one:
Sample C[C@H]1CNC(=O)c2cnn3ccc(nc23)N[C@H](C)c2cc(F)ccc2O1 — what was its Kp at 2 h?
0.00493

###

Provide the recorded concentration at 0.5 h for the entries that follow.
- Method: Brain distribution in rats (plasma, brain, CSF by LC-MS/MS)
- Format: in vivo, Male Sprague Dawley (SD) rats
- Measurement parameters: male, Sprague-Dawley, rat, in vivo, po, 10 mg/kg, Brain concentration (ng/g ± SD)
Please report the result as a number followed by the unit.

| Compound | concentration at 0.5 h |
| --- | --- |
| C[C@H]1CNC(=O)c2cnn3ccc(nc23)N[C@H](C)c2cc(F)ccc2O1 [Repotrectinib, repotrectinib] | 69.6 ng/g |

Would you kindly look at the next entry?
Would you kindly share the measured concentration at 0.5 h for C[C@@H]1CCc2ncc(F)cc2[C@H]2CCCN2c2ccn3ncc(c3n2)C(=O)N1 [Selitrectinib, selitrectinib] ?
93.9 ng/g

The reported numbers originate from paper PMC11300601.
